readoutName: melting point

For orientation, consider the following solved cases.
>  <compound>
NS(=O)(=O)c1cc(C(=O)O)cc(NCc2ccccc2)c1Oc1ccccc1

>  <assayValue>
264 to 265 °C

$$$$
>  <compound>
CCOC(=O)c1sc(SC)c(C(=O)CC(C)=O)c1C

>  <assayValue>
51 to 52 °C

$$$$
>  <compound>
CCCn1cc2c(C3C(=O)Nc4ccc(C)cc43)nc(Cl)nc2n1 (stereo not given)

>  <assayValue>
275 to 280 °C

$$$$
>  <compound>
COC(=O)C(C)N(C(=O)CCl)c1c(C)cccc1Cl (stereo not given)

>  <assayValue>
75 to 78 °C

$$$$
>  <compound>
Nc1nc(NCc2ccc(OCc3ccccc3)cc2)nc2nc(-c3ccco3)nn12

>  <assayValue>
168 to 170 °C

$$$$
>  <compound>
CN(CCc1ccc(NC(=N)C(F)(F)F)cc1)Cc1ccccc1

>  <assayValue>
105 to 107 °C

$$$$

Continue with the next compound.
Challenge: May I ask what melting point has been recorded for `CCCn1c(=O)c2[nH]c(/C=C/c3ccc(Cl)cc3)nc2n(CCC)c1=O` ?
Response given: > 290 °C
